Source of measurements: patent US20180042899A1

study system: AHR (AHR^b isoform) (Mus musculus, UniProt P30561, M589L/N533S/P471L)
Construct: from tissue; host or cells: liver of C57BL/6J mice (cytosol in A1; liver in vivo in A7)
Sequence (P30561 10-805 P471L/N533S/M589L limits assumed): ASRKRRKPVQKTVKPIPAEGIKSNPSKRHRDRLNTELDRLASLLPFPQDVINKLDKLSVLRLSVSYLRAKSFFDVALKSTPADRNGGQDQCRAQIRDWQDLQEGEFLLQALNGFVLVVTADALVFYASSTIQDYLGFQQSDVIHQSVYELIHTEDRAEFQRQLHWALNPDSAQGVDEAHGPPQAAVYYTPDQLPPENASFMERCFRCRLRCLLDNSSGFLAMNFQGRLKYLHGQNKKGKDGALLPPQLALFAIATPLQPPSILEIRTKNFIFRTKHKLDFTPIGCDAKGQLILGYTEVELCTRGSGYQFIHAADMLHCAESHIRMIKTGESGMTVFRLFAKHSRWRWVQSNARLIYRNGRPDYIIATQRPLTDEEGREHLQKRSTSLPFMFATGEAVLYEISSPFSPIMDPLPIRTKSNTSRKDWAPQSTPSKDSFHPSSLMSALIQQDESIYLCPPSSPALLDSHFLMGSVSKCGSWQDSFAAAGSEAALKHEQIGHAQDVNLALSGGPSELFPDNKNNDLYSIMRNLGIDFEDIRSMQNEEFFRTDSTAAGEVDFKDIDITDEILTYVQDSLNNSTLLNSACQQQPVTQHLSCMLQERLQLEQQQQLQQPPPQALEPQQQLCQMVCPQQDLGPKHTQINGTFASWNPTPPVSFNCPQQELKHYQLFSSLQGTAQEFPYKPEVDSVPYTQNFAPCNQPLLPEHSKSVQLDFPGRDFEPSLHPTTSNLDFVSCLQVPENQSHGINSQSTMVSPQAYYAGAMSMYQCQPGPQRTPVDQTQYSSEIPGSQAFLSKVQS
Sequence (P11499 whole entry partner, canonical isoform): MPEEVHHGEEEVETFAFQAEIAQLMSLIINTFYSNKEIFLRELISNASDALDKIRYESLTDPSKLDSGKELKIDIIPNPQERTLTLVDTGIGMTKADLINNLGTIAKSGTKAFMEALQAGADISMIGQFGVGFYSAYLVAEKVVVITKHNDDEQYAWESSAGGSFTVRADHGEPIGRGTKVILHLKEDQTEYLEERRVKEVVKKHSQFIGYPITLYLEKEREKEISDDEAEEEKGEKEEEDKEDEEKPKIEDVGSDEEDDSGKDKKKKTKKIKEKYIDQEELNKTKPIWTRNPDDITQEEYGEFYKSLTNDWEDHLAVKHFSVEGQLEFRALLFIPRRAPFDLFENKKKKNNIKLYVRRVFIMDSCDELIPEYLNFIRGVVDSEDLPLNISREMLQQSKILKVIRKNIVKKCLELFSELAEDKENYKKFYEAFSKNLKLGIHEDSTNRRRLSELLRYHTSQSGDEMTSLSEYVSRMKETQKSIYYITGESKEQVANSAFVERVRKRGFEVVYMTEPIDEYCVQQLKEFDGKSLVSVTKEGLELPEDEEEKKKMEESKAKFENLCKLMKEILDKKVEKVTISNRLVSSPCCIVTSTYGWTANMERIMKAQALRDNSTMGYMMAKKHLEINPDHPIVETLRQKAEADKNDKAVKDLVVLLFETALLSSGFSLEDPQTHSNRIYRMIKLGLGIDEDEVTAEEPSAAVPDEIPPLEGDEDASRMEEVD
measurement description: Photoaffinity competitive ligand binding with radioligand 125Ibr2N3DpD in hepatic cytosol
Set-up: species or system mouse (C57BL/6J)
stated conditions: C57BL/6J hepatic cytosol, 1 nM radioligand; read-out: IC50, competitive binding
quantity measured: IC50 (nM)
A number alone suffices; assume nM.

c1ccc2cc3c(ccc4ccccc43)cc2c1 has a reported IC50 of 13.7

###

# pIC50 values compiled below
study system: AHR (AHR^b isoform) (Mus musculus, UniProt P30561, M589L/N533S/P471L)
Construct: from tissue; host or cells: liver of C57BL/6J mice (cytosol in A1; liver in vivo in A7)
measurement description: Photoaffinity competitive ligand binding with radioligand 125Ibr2N3DpD in hepatic cytosol
Design: species or system mouse (C57BL/6J)
// pIC50: -log10(molar conc.)

Reported pIC50 for O=c1cc(-c2ccccc2)oc2ccc3ccccc3c12 was 8.55

Record Clc1cc2c(cc1Cl)Oc1cc(Cl)c(Cl)cc1O2 , field pIC50: 8.82
